Assignment: determine reported % Inh of Gli1 reporter, CM N = 1 for the given binders.
measured-target: Shh-N in conditioned medium (human, UniProt Q15465 24-197, N-terminal palmitoyl modification; lacks the C-terminal cholesterol moiety)
protocol-details: cell-based or functional assay
Answers are plain numbers, in %.

// solved cases for % Inh of Gli1 reporter, CM N = 1 follow
binder	reported-measurement
1A5 (antibody, V domains shown, fully human XenoMouse hybridoma antibody; tested as hybridoma supernatant and as purified antibody; also called MAb 1A5) VH: EVQVVESGGDLIQPGGSLRLSCVASGFTVSSNYMNWVRQAPGKGLEWVSVIYSGGNTYYADSVKGRFTISRDNSKNTLYLQMNSLRAEDTAVYYCARDSSVVVGLGYFDLWGRGTLVTVSS VL: SYELTQPPSVSVSPGQTASITCSGDKLGANYASWYQQKPGQSPVLVIFQDTKRPSGIPERFSGSNSGNTATLTISGTQAMDEADYYCQAWDFSTVIFGGGTKLTVL	73
1G1 (antibody, V domains shown, fully human XenoMouse hybridoma antibody; also called MAb 1G1) VH: EVQLVESGGGLVKPGGSLRLSCAASGFTFSSYSMNWVRQAPGKGLEWVSSFSSSSSYIYYADSVKGRFTISRDNAKNSLYLQMNSLRAEDTAVYYCARDRGDYVDYYYGMDVWGQGTTVTVSS VL: SYELTQPPSVSVSPGQTASITCSGDKLDYKYICWYQQKPGQSPVLVIYQDIKRPSGIPERFSGSNSGNTATLTISGTQAMDEADYYCQAWDSNTPLVFGGGTKLTVL	33
3H8 (antibody, V domains shown, fully human XenoMouse hybridoma antibody; also called MAb 3H8) VH: QVQLVESGGGVVQPGRSLRLSCAASGFTFSTYGMHWVRQAPGKGLEWVAVIWYDGSNKYYADSVKGRFTISRDNSKNTLNLQMNSLRAEDTAVYYCARDLYYYGSGSPFDYWGQGTLVTVSS VL: EIVMTQSPATLSVSPGERATLSCRASQSVSSNLAWYQQKPGQAPRLLIFGVSIRATGIPARFSGSGSGTEFTLTISSLQSEDFAVYYCQQYNNWPRPGFGGGTKVEIK	21
1G12 (antibody, V domains shown, fully human XenoMouse hybridoma antibody; tested as hybridoma supernatant and as purified antibody; also called MAb 1G12) VH: QVQLVESGGGVVQPGRSLRLSCAASGFTFSTYGMHWVRQAPGKGLEWVAVIWYDGSNKYYADSVNGRFTISRDNSKNTLYLQMNSLRGEDTAVYYCARDLYYYGSGSPFDYWGQGTLVTVSS VL: EIVMTQSPATLSVSPGERVTLSCRASQSVSSNLAWYQQKPGQAPRLLIYGVSIRATGIPARFSGSGSGTEFTLTISSLQSEDFAVYYCQQYDNWPRPGFGGGTKVEIK	32

Please examine the following record next.
Ask | Dear colleague, I am looking for the recorded % Inh of Gli1 reporter, CM N = 1 of the following binder: 1H10 (antibody, V domains shown, fully human XenoMouse hybridoma antibody; tested as hybridoma supernatant and as purified antibody; also called MAb 1H10) VH: QVQLVESGGGVVQPGRSLRLSCAASGFTFSSYGMHWVRQAPGKGLEWVAVIWNDGSNEYYADSVKGRFTISRDNSKNTLYLQMNSLRAEDTAVYYCARDLYYYGSGSPFDDWGQGTLVTVSS VL: EIVMTQSPGTLSVSPGERATLSCRASQSVGSNLAWYQQKPGQAPRLLIFGVSIRATGVPARFSGSGSGTEFTLTISSLQSEDFAVYYCQQYNDWPRPGFGGGTKVEIK
Reply | 43
